test.protocol: NCI Yeast Anticancer Drug Screen. Data for the cln2 rad14 strain (AID 165);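 also: 0% = growth equal to vehicle treated cultures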
condition.context: S. cerevisiae cln2 rad14 strain, at 50.0 µM, active compounds read high
This is part of a sample that, as a whole, favours compounds with a hit. Of some 79,000 tested, about 15% had one in any assay.
metric: growth inhibition (%)
Write the number in % without appending the unit.

Use the examples below as a reference point.
{"compound": "CC(C)N1CCc2cc3c(cc2C1)OCO3", "units.of.measure": "%", "growth inhibition": 1.25}
{"compound": "CC1CN=C(Nc2ccc(F)c(Cl)c2)S1 (stereo unspecified)", "units.of.measure": "%", "growth inhibition": 8.65}
{"compound": "NCCCP(c1ccccc1)c1ccccc1", "units.of.measure": "%", "growth inhibition": 8.7}
{"compound": "N#Cc1cccc([N+](=O)[O-])c1", "units.of.measure": "%", "growth inhibition": 30.8}
{"compound": "CC(C)(C)[Si](C)(C)OC(=O)CCCc1ccc(N(CCCl)CCCl)cc1", "units.of.measure": "%", "growth inhibition": 9.4}
{"compound": "O=[P+](O)C(O)c1ccccc1 (stereo unspecified)", "units.of.measure": "%", "growth inhibition": 4.9}
{"compound": "Cc1nc2ccccc2[se]1", "units.of.measure": "%", "growth inhibition": 3.5}
{"compound": "CCOC(=O)C(CC(C)C)NC(=O)C(N)Cc1ccc(N(CCCl)CCCl)cc1 (stereo unspecified)", "units.of.measure": "%", "growth inhibition": -17.6}

Which growth inhibition value is on record for CCN(CCCl)c1cc(CN(C)C)cc(NC(=O)c2ccc(C(=O)Nc3ccccc3)cc2)c1 ?
26.2

Which growth inhibition value is on record for CN1C(=O)CC(=O)N(C)P1(=O)Oc1ccccc1 ?
-1.6

Which growth inhibition value is on record for CC(C)(C)c1cc(O)ccc1O ?
-0.25

Which growth inhibition value is on record for CC(C)CCC1(CC[N+](C)(C)C)C(=O)NC(=O)NC1=O ?
-29.2

Which growth inhibition value is on record for Cc1c(Cl)cccc1NC(=O)C(=O)C1C(=O)NC(=O)NC1=O ?
-6

Which growth inhibition value is on record for CC1(c2ccccc2)CCC(=O)NC1=O (stereo unspecified) ?
32.5

Which growth inhibition value is on record for O=P(c1cccc(C(F)(F)F)c1)(c1cccc(C(F)(F)F)c1)c1cccc(C(F)(F)F)c1.O=P(c1cccc(C(F)(F)F)c1)(c1cccc(C(F)(F)F)c1)c1cccc(C(F)(F)F)c1.[Cl][Sn]([Cl])([Cl])[Cl] ?
62.8

Which growth inhibition value is on record for CC(=O)[O-].O=[N+]([O-])c1ccc([O-])c(C=NCCN=Cc2cc([N+](=O)[O-])ccc2[O-])c1.[Mn+3] ?
48.2

----------
test.protocol: NCI Yeast Anticancer Drug Screen. Data for the sgs1 mgt1 strain (AID 161);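 also: 0% = growth of cultures given vehicle only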
condition.context: S. cerevisiae sgs1 mgt1 strain, at 50.0 µM (retest, dose inferred, filed as 5.0), active compounds read high
This is part of a sample that, as a whole, favours compounds with a hit. Of some 79,000 tested, about 15% had one in any assay. Activity calls are given as the source filed them. Cut-off read from the data, not from the text of the source: active = growth inhibition above about 70%; inactive = the rest.
Listed here are molecules together with their documented growth inhibition.

Use the examples below as a reference point.
{"molecule": "CCCCCCCCCCCCCC(=O)O[C@H]1CC[C@H](NC(=O)[C@H](OC)[C@H](O)[C@@H](O)[C@H](O)/C=C/C(C)C)C(=O)NC1", "growth inhibition": "92% (active)"}
{"molecule": "CC1=C(N2CC2)C(=O)c2nc3n(c2C1=O)CCC3OC(=O)CCl (configuration not stated)", "growth inhibition": "60% (inactive)"}
{"molecule": "S=C=[N][Sn]([N]=C=S)([c]1ccccc1)[c]1ccccc1.c1ccc2nc(-c3ccc4ccccc4n3)ccc2c1", "growth inhibition": "99% (active)"}
{"molecule": "[CH3][Sn]([CH3])([Br])[Br].c1ccc(-c2nnc(-c3ccccn3)nc2-c2ccccc2)cc1", "growth inhibition": "53% (inactive)"}
{"molecule": "CCN1C(C)N1P(=S)(OC1CC(C)(C)N(O)C(C)(C)C1)OC1CC(C)(C)N(O)C(C)(C)C1 (configuration not stated)", "growth inhibition": "1% (inactive)"}
{"molecule": "O=C1C=C(N2CC2)C(=O)C(N2CC2)=C1N1CC1", "growth inhibition": "98% (active)"}
{"molecule": "O=C(CBr)OCC(O)CCl (configuration not stated)", "growth inhibition": "100% (active)"}
{"molecule": "NC(=O)/C=C/c1ccc([As]=O)cc1 (configuration not stated)", "growth inhibition": "34% (inactive)"}
{"molecule": "[Cl][Hg][c]1ccc(Cl)s1", "growth inhibition": "100% (active)"}
{"molecule": "[Se]C1=NCCN1", "growth inhibition": "39% (inactive)"}

Which growth inhibition value is on record for COc1cc(C2c3[nH]c4ccccc4c3[C@@H](Nc3ccc(C#N)cc3)[C@H]3COC(=O)N23)cc(OC)c1O (some centres not stated) ?
61% (inactive)

Which growth inhibition value is on record for COc1ccc(CN2CCCN(Cc3ccc(OC)cc3OC)C2c2ccc(N(CCCl)CCCl)cc2)c(OC)c1 ?
42% (inactive)

Which growth inhibition value is on record for CC1=NNC(=O)C1(Br)Br ?
16% (inactive)

Which growth inhibition value is on record for CC(C)=N.[C-]#[O+].[C-]#[O+].[C-]#[O+].[C-]#[O+].[C-]#[O+].[W] ?
34% (inactive)

Which growth inhibition value is on record for CCC(CC)COC(=O)CI ?
99% (active)

Which growth inhibition value is on record for S=P(OC1CC2CCC1C2)(c1ccccc1)c1ccccc1 (configuration not stated) ?
97% (active)

Which growth inhibition value is on record for CCCCCc1cc(O)c(CCCC)c(O)c1 ?
90% (active)

Which growth inhibition value is on record for CCCNC1=C(C)C(=O)C2=C(C1=O)[C@H](COC(N)=O)[C@]1(OC)[C@@H]3N[C@@H]3CN21 ?
64% (inactive)

Which growth inhibition value is on record for O=C1C(CCl)(CCl)CCC12CNC(Cl)(Cl)C2 (configuration not stated) ?
0% (inactive)

Which growth inhibition value is on record for c1cc2n[pH]nc2cn1 (configuration not stated) ?
-6% (inactive)

Which growth inhibition value is on record for NC(=O)c1ccc(C(=O)Nc2ccc([As](=O)(O)O)cc2)cc1 ?
3% (inactive)

Origin of the recorded values: PubChem BioAssay (NCI)
